Biological target: PI3Kα (Homo sapiens, UniProt P42336)
Sequence (P42336 whole entry): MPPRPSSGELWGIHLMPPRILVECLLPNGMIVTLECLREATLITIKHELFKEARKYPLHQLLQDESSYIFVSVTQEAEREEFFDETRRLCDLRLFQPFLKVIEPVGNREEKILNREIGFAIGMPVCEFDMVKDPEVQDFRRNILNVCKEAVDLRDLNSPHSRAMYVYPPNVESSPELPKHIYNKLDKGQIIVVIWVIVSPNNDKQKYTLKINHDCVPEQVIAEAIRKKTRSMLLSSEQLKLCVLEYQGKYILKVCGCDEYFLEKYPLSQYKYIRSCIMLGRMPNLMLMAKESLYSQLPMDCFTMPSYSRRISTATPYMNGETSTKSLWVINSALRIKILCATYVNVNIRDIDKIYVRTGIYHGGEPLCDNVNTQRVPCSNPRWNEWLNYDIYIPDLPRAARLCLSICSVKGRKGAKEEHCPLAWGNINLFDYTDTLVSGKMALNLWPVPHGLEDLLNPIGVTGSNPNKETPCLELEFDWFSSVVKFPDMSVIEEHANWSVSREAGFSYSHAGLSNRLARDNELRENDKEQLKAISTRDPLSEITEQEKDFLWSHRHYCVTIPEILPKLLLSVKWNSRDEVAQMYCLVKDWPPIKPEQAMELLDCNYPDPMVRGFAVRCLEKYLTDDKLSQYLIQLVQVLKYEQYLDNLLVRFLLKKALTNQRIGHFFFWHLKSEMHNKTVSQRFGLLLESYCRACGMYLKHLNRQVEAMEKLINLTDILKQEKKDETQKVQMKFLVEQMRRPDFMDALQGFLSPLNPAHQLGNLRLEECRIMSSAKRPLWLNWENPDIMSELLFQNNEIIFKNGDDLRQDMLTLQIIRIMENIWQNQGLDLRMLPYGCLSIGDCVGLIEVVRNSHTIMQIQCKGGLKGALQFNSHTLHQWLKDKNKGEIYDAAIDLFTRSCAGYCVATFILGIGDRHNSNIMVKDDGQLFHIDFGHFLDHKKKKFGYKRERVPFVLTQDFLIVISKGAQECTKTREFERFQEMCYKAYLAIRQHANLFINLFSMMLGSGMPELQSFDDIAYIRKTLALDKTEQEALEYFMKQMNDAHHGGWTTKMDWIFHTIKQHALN
Sequence (P27986 whole entry partner): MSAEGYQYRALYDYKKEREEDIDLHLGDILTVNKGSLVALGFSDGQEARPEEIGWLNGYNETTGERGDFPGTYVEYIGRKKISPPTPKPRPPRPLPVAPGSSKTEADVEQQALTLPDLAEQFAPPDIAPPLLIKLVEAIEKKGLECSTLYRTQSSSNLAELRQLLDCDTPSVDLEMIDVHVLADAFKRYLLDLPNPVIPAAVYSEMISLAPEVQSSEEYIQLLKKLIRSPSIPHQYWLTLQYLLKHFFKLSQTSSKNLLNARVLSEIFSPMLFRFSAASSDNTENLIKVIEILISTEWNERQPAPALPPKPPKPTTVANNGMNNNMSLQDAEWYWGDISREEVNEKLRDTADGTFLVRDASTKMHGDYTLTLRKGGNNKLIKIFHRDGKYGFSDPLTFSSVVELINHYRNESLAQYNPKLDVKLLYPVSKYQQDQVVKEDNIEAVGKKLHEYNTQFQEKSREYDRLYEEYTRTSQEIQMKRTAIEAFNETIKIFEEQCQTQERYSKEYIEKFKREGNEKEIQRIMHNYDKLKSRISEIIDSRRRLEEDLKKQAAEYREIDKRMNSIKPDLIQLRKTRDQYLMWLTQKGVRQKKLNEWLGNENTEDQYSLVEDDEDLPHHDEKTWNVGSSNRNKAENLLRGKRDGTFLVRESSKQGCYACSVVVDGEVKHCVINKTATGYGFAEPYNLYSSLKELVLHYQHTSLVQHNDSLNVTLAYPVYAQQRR
Experiment: pAKT S473 ELISA in A549 cells (PI3Kα activation)
Assay type: cell-based
Set-up: endogenous in cells; host or cells: A549
Settings: A549 cells, 15 min treatment, pAKT S473 ELISA, normalised to Emax of 1 μM insulin; read-out: Av EC50
pEC50: −log10 of the molar value.

- molecule: "COc1cc(N2CCN(C)CC2)ccc1Nc1cc(Nc2ccncn2)ccn1 [53 (2039)]"
  value_prefix: "="
  pEC50: 5.11
- molecule: "COc1cc(Nc2cc(Nc3ccc4c(c3)N(C(C)=O)CC4)ccn2)cc(OC)c1OC [6 (1907)]"
  value_prefix: "="
  pEC50: 6.08
- molecule: "CC(=O)N1CCc2cccc(Nc3ccnc(Nc4ccc(N5CCOCC5)cc4)c3)c21 [38 (2015)]"
  value_prefix: "="
  pEC50: 5.88
- molecule: "CC(=O)N1CCc2cccc(Nc3ccnc(Nc4cccc(Oc5ccccc5)c4)c3)c21 [34 (2010)]"
  value_prefix: "<"
  pEC50: 4.30
- molecule: "COc1cc(N2CCN(C)CC2)ccc1Nc1cc(Nc2cccc3c2N(C(C)=O)CC3)c(F)cn1 [R2 (1890)]"
  value_prefix: "="
  pEC50: 5.79
- molecule: "COc1cc(N2CCN(C)CC2)ccc1Nc1nccc(Nc2cccc3c2N(C(C)=O)CC3)c1C [16 (1944)]"
  value_prefix: "="
  pEC50: 5.26
- molecule: "CC(=O)N1CCc2cccc(Nc3ccnc(Nc4cccc5ccncc45)c3)c21 [71 (2071)]"
  value_prefix: "="
  pEC50: 5.18
- molecule: "COc1cc(N2CCN(C)CC2)ccc1Nc1cc(-c2cccc(C(=O)N(C)C)c2)ccn1 [103 (1940)]"
  value_prefix: "<"
  pEC50: 4.30

----------
Molecular target: UniProt:P42336
Assay: pAKT S473 ELISA in A549 cells (PI3Kα activation)
Type: cell-based
Set-up: endogenous in cells; host or cells: A549
Conditions: A549 cells, 15 min treatment, pAKT S473 ELISA, normalised to Emax of 1 μM insulin; read-out: Av EC50
pEC50: −log10 of the molar value.
assay_readout: pEC50

- molecular_string: "CCN1CCN(c2ccc(Nc3cc(Nc4ccncn4)ccn3)cc2)CC1"
  value_prefix: "≤"
  numeric_readout: 4.30
- molecular_string: "CNC(=O)c1ccc(Nc2ccnc(Nc3ccc4c(c3)CCN4C(C)=O)c2)cc1"
  value_prefix: "<"
  numeric_readout: 4.57
- molecular_string: "CC(=O)N1CCc2ccc(Nc3cc(Nc4cccc5c4N(C(C)=O)CC5)ccn3)cc21"
  value_prefix: "="
  numeric_readout: 6.30
- molecular_string: "CC(=O)N1CCc2cccc(Nc3ccnc(Nc4ccc(N5CCN(C)CC5)cc4C(F)(F)F)c3)c21"
  value_prefix: "<"
  numeric_readout: 4.30
- molecular_string: "COc1cc(N2CCN(C)CC2)ccc1Nc1cc(Nc2cccc3c2N(C(C)=O)CC3)ccn1"
  value_prefix: "="
  numeric_readout: 5.59
- molecular_string: "COc1cc(N2CCN(C)CC2)ccc1Nc1cc(Nc2cccc3c2N(C(C)=O)CC3)cc(C)n1"
  value_prefix: "="
  numeric_readout: 5.27
- molecular_string: "CC(=O)N1CCc2cccc(Nc3ccnc(Nc4ccc(-c5ccccc5)cn4)c3)c21"
  value_prefix: "<"
  numeric_readout: 4.30
- molecular_string: "CC(=O)N1CCc2cccc(Nc3ccnc(Nc4ccc5ccccc5n4)c3)c21"
  value_prefix: "<"
  numeric_readout: 4.30
- molecular_string: "COc1cc(N2CCN(C)CC2)ccc1Nc1cc(Nc2ccc(S(C)(=O)=O)cc2)ccn1"
  value_prefix: "="
  numeric_readout: 5.42
- molecular_string: "COc1cc(Nc2cc(Nc3ccccc3)ccn2)cc(OC)c1OC"
  value_prefix: "≤"
  numeric_readout: 4.30
- molecular_string: "CNC(=O)c1cccc(Nc2ccnc(Nc3ccc(N4CCN(C)CC4)cc3OC)c2)c1"
  value_prefix: "="
  numeric_readout: 5.87
- molecular_string: "COc1cc(N2CCN(C(C)C)CC2)ccc1Nc1cc(Nc2cccc3c2N(C(C)=O)CC3)ccn1"
  value_prefix: "="
  numeric_readout: 5.64
- molecular_string: "CC(=O)N1CCc2cccc(Nc3ccnc(Nc4nn(C)c5ccccc45)c3)c21"
  value_prefix: "="
  numeric_readout: 5.83
- molecular_string: "CC(=O)N1CCc2cccc(Nc3ccnc(Nc4ccc(C(=O)N(C)C)cc4)c3)c21"
  value_prefix: "<"
  numeric_readout: 4.72
- molecular_string: "COc1cc(N2CCCCC2)ccc1Nc1cc(Nc2cccc3c2N(C(C)=O)CC3)ccn1"
  value_prefix: "="
  numeric_readout: 5.36
- molecular_string: "CC(=O)N1CCc2cccc(Nc3ccnc(Nc4ccc(N5CCOCC5)cc4C)c3)c21"
  value_prefix: "="
  numeric_readout: 5.34
- molecular_string: "COc1cc(N2CCN(C)CC2)ccc1Nc1cc(Nc2ccc3c(c2)CCN3C(C)=O)ccn1"
  value_prefix: "="
  numeric_readout: 5.90

----------
Biological target: PI3Kα (Homo sapiens, UniProt P42336)
Assay: ADP-Glo in vitro lipid kinase assay, PI3Kα
Type: biochemical
Parameters: Full-length p110α was expressed in a complex with full-length p85α (for biochemistry and HDX-MS); 6xHis followed by TEV protease site (N); made in house; host or cells: Spodoptera frugiperda Sf9 (baculovirus co-infection; plasmids OP831 and OP809)
Conditions: relative to pY control

- molecular_string: "CCN1CCN(c2ccc(Nc3cc(Nc4ccncn4)ccn3)cc2)CC1"
  Max. activity relative to pY ctrl [%]: 14
- molecular_string: "COc1cc(Nc2cc(Nc3cccc4c3N(C(C)=O)CC4)ccn2)cc(OC)c1OC"
  Max. activity relative to pY ctrl [%]: 318
- molecular_string: "CC(=O)N1CCc2cccc(Nc3ccnc(Nc4ccccc4)c3)c21"
  Max. activity relative to pY ctrl [%]: 36
- molecular_string: "CCN1CCN(c2ccc(Nc3cc(Nc4cccc5c4N(C(C)=O)CC5)ccn3)cc2)CC1"
  Max. activity relative to pY ctrl [%]: 397
- molecular_string: "CCN1CCN(c2ccc(Nc3nccc(Nc4cccc5c4N(C(C)=O)CC5)n3)cc2)CC1"
  Max. activity relative to pY ctrl [%]: 16
- molecular_string: "COc1cc(N2CCN(C)CC2)ccc1Nc1cc(Nc2cccc3c2N(C(C)=O)CC3)ccn1"
  Max. activity relative to pY ctrl [%]: 408

----------
Molecular target: PI3Kα (Homo sapiens)
Experiment: pAKT S473 ELISA in A549 cells (PI3Kα activation)
Assay type: cell-based
Design: endogenous in cells; host or cells: A549
Details: A549 cells, 15 min treatment, pAKT S473 ELISA, normalised to Emax of 1 μM insulin; read-out: Av EC50
Description: EC50 values were determined by quantifying phosphorylation on S473 residues of Akt in A549 human adenocarcinoma cells by ELISA (enzyme linked immunoadsorbent assay, R&D Systems, DYC887BE). […] Levels of pAKT-S473 were determined using the phospho-AKT (S473) pan-specific Duoset IC ELISA (R&D Systems #DYC887BE) in 96-well white high-binding plates (Corning #3922) according to manufacturer's instructions. Endpoint luminescence was measured using a Sense (Hidex) platereader. […]

- molecular_string: "COc1cc(N2CC3(COC3)C2)ccc1Nc1cc(Nc2cccc3c2N(C(C)=O)CC3)ccn1"
  value_prefix: ">"
  EC50 (nM): 505
- molecular_string: "CC(=O)N1CCc2cccc(Nc3ccnc(-c4cnn(C5CCNCC5)c4)c3)c21"
  value_prefix: "="
  EC50 (nM): 590
- molecular_string: "CC(=O)N1CCc2cccc(Nc3ccnc(Nc4ccc(C(C)(C)C)cc4)c3)c21"
  value_prefix: "="
  EC50 (nM): 7400
- molecular_string: "CCC(=O)N1CCc2cccc(Nc3ccnc(Nc4ccc(N5CCN(C)CC5)cc4OC)c3)c21"
  value_prefix: "="
  EC50 (nM): 2280

----------
Below: a set of entries, each annotated with reported EC50.
Target: PI3Kα (Homo sapiens, UniProt P42336)
Experiment: pAKT S473 ELISA in A549 cells (PI3Kα activation)
Format: cell-based
Design: endogenous in cells; host or cells: A549
Conditions: A549 cells, 15 min treatment, pAKT S473 ELISA, normalised to Emax of 1 μM insulin; read-out: Av EC50

- compound: "CC(=O)N1CCc2cccc(Nc3ccnc(Nc4cc(-c5ccccc5)nn4C)c3)c21 [46 (2023)]"
  target_or_system: "PI3Kα (Homo sapiens, UniProt P42336)"
  value_prefix: ">"
  EC50 [nM]: 50000
- compound: "COc1cc(N2CCN(C)CC2)ccc1Nc1cc(Nc2cccc3nccnc23)ccn1 [62 (2056)]"
  target_or_system: "PI3Kα (Homo sapiens, UniProt P42336)"
  value_prefix: "="
  EC50 [nM]: 1290
- compound: "CCOc1cc(N2CCN(C)CC2)ccc1Nc1cc(Nc2cccc3c2N(C(C)=O)CC3)ccn1 [31 (2007)]"
  target_or_system: "PI3Kα (Homo sapiens, UniProt P42336)"
  value_prefix: "="
  EC50 [nM]: 1550
- compound: "CC(=O)N1CCc2cccc(Nc3ccnc(Nc4ccc(OCc5ccccc5)cc4)c3)c21 [37 (2014)]"
  target_or_system: "PI3Kα (Homo sapiens, UniProt P42336)"
  value_prefix: ">"
  EC50 [nM]: 50000
- compound: "CCN1CCN(c2ccc(Nc3cc(Nc4cc(C(C)C)nn4C)ccn3)cc2)CC1 [77 (2103)]"
  target_or_system: "PI3Kα (Homo sapiens, UniProt P42336)"
  value_prefix: "="
  EC50 [nM]: 2090
- compound: "COc1cc(Nc2cc(Nc3cnn(C)c3)ccn2)cc(OC)c1OC [4 (1905)]"
  target_or_system: "PI3Kα (Homo sapiens, UniProt P42336)"
  value_prefix: "="
  EC50 [nM]: 2080
- compound: "CC(=O)N1CCc2cccc(Nc3ccnc(Nc4cccc(N5CCN(C)CC5)c4)c3)c21 [22 (1968)]"
  target_or_system: "PI3Kα (Homo sapiens, UniProt P42336)"
  value_prefix: "="
  EC50 [nM]: 7850
- compound: "CCN1CCN(c2ccc(Nc3cc(Nc4cccc(C(=O)NC)c4)ccn3)cc2)CC1 [78 (2104)]"
  target_or_system: "PI3Kα (Homo sapiens, UniProt P42336)"
  value_prefix: "="
  EC50 [nM]: 1980
